What Ratio IC50 was measured for each of the following?
Species: Homo sapiens
procedure.details: Selectivity ratio of IC50 for Aurora B (unknown origin) to IC50 for Aurora A (unknown origin)
Answers are plain numbers.

{"smiles.entry": "Cc1cc(Nc2nc(Cc3ccccc3)nc3ccccc23)n[nH]1", "property": "Ratio IC50", "test.value": 18}

Count: 4. Required value per item: Ratio IC50.
1. Cc1cc(Nc2nc(C(=O)c3ccccc3)nc3ccccc23)n[nH]1
2. CCOC(=O)C1CCN(c2ccc3c(Nc4cc(C)[nH]n4)nc(-c4ccccc4)nc3c2)CC1
3. Cc1cc(Nc2nc(C(C)C)nc3ccccc23)n[nH]1
4. Cc1cc(Nc2nc(-c3ccc4ccccc4c3)nc3ccccc23)n[nH]1

Result ::
1: 61; 2: 66; 3: 11; 4: 40

Recorded values, source ChEMBL document CHEMBL4270643.
